For each of the compounds below, state its cytotoxicity at 70.5 h.
Protocol: Human HepG2 cell viability assay in 384 well format
Format: toxicity, cell-based
Set-up: dose 125 nL, time 70.5 hour; concentration not given beside the values
Condition label: HepG2 cells, read-out: Inhibition
Answers are plain numbers, in %.

Reference set, count: 3
Compound	cytotoxicity at 70.5 h (%)
CC(C)n1ccnc1C1CCN(C(=O)C2COc3ccccc3O2)CC1 (stereo unspecified)	-9.98
Oc1cc(CCC2CCCCN2)cc(-c2cccnc2)c1 (stereo unspecified)	-0.0954
CN(C)CCNC(=O)Cc1cccc(I)c1	18.8

Please supply cytotoxicity at 70.5 h for each of the following items, keeping them in order.
1. CCc1nc(CC(=O)NCC(Cc2ccc(F)cc2)C(N)=O)cs1 (stereo unspecified)
2. CN(C)CCn1ccnc1C1CCCN(c2ncc(Cl)cc2F)C1 (stereo unspecified)

Resp:
29.6
-3.65

Kindly note the recorded cytotoxicity at 70.5 h for COc1cccc(F)c1C(C)NC(=O)NCc1ccnc(C)n1 (stereo unspecified) , which is 26.5

The reported numbers originate from ChEMBL document CHEMBL3507680.
